Assayed System: T1, full-length human Notch1 expressed on the cell surface (human, UniProt P46531 19-2555)
T1 construct: whole, on cells; On U-2 OS cells stably overexpressing it (ELISAs, reporter cells); also called cell surface full-length human Notch1; native Notch1 receptor
T1 sequence (P46531 19-2555): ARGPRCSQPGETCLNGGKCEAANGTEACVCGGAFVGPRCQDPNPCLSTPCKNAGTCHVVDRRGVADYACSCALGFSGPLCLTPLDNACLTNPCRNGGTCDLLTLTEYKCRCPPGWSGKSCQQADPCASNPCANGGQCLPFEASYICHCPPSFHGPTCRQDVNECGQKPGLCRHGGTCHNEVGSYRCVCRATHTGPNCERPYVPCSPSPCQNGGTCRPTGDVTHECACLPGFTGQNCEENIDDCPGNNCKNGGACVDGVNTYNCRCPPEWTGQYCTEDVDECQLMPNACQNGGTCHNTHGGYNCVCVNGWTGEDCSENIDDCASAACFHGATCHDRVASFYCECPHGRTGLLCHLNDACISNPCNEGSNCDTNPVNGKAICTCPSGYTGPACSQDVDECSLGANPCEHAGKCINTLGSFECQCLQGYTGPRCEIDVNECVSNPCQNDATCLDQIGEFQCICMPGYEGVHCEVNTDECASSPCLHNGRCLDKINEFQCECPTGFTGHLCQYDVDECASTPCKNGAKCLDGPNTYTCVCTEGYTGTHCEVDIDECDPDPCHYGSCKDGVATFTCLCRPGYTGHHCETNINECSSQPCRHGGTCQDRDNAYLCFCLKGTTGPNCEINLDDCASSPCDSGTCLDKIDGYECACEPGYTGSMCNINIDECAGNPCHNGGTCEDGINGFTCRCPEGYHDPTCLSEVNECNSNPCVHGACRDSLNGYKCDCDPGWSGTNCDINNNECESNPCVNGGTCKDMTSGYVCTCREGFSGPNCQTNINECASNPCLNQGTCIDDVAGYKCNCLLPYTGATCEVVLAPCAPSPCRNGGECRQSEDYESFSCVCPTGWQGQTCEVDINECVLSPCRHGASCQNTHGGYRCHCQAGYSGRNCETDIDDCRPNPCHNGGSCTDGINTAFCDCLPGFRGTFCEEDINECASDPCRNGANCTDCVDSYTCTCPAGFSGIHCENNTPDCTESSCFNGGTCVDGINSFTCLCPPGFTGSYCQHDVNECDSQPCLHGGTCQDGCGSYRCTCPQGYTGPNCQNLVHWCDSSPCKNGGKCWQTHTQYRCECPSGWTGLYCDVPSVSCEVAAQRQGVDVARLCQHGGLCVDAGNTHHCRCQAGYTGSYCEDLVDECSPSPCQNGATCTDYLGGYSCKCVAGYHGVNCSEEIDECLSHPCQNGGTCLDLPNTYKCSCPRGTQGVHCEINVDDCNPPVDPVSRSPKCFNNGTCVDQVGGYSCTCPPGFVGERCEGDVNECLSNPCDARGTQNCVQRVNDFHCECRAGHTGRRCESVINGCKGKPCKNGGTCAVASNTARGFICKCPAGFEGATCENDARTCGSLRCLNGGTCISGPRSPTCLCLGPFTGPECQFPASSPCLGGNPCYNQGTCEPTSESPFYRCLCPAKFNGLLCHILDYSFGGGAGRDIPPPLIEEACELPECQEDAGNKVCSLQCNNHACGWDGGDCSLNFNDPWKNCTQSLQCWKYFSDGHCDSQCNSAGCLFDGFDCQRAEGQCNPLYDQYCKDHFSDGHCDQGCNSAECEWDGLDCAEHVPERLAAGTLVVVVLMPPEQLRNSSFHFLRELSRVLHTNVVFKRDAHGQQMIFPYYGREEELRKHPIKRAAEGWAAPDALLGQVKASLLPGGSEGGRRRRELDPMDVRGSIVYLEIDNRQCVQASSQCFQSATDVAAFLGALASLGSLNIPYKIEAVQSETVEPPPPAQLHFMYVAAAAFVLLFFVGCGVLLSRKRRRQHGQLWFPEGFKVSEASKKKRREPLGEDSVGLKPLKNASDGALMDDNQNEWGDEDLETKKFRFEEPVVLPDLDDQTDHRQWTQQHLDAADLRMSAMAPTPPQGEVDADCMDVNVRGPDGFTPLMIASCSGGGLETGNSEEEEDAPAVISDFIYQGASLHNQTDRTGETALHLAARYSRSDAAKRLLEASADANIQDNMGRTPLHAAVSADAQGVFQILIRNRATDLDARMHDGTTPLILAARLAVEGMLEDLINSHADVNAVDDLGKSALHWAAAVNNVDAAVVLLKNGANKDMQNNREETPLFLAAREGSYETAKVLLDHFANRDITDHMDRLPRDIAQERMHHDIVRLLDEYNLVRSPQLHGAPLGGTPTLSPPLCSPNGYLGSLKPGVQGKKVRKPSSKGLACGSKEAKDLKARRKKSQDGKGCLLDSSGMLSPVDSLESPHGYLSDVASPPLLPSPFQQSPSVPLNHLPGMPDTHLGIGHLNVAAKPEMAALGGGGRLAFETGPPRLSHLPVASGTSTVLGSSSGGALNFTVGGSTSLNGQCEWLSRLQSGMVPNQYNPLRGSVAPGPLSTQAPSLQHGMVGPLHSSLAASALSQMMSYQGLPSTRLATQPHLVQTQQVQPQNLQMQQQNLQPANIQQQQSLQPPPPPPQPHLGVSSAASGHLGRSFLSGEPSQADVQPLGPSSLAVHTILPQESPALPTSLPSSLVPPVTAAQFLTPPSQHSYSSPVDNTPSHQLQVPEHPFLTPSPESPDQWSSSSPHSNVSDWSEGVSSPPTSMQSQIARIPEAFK
Test Protocol: cell-based ELISA, U-2 OS cells expressing full-length human Notch1
For each entry below, report its pEC50 value.
Give bare numbers, as −log10 of the molar value.

For orientation, consider the following solved cases.
humanized 438 VH1.1/VL1.9 (antibody, human IgG1, V domains shown) VH: EVQLVESGGGLVQPGGSLRLSCAASGFTFSSFAMAWVRQAPGKGLEWVASISYGGADTYYRDSVKGRFTISRDNAKNSLYLQMNSLRAEDTAVYYCAKDLPYYGYTPFVMDAWGQGTLVTVSS VL: DIMLTQSPSSLSASVGDRVTITCRASQRINTDLHWYQQKPGKAPKVLIKFASQTISGVPSRFSGSGSGTDFTLTISSLQPEDFATYYCQQSNSWPYTFGQGTKLEIK; 9.75
humanized 438 VH1.1/VL1.0 (antibody, human IgG1, V domains shown) VH: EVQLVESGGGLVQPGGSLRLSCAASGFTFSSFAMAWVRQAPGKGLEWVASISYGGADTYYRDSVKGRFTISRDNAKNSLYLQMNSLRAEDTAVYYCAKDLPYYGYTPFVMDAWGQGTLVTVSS VL: DIQMTQSPSSLSASVGDRVTITCRASQRINTDLHWYQQKPGKAPKLLIYFASQTISGVPSRFSGSGSGTDFTLTISSLQPEDFATYYCQQSNSWPYTFGQGTKLEIK; 9.53
humanized 438 VH1.1/VL1.1 (antibody, human IgG1, V domains shown) VH: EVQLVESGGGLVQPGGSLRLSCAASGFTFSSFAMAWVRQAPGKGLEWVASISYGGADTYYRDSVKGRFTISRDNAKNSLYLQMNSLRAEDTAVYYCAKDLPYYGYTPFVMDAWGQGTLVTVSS VL: DIQLTQSPSSLSASVGDRVTITCRASQRINTDLHWYQQKPGKAPKVLIKFASQTISGVPSRFSGSGSGTDFTLTISSLQPEDFATYYCQQSNSWPYTFGQGTKLEIK; 9.75

Continue with the next binder.
Q. I would be grateful if you could share the reported pEC50 for humanized 351 VH1.0/VL1.4 (antibody, human IgG1, V domains shown) VH: EVQLVESGGGLVQPGGSLRLSCAASGFTFSHYGMNWVRQAPGKGLEWVASISRSGSYIRYVDTVKGRFTISRDNAKNSLYLQMNSLRAEDTAVYYCAREGQFGDYFEYWGQGTLVTVSS VL: DIQMTQSPSSLSASVGDRVTITCRASQKISTNLHWYQQKPGKAPKLLIKYASQTISGVPSRFSGSGSGTDFTLTISSLQPEDFATYYCQQTNSWPLTFGGGTKVEIK .
A. 10.00
